Tested on: MDA-MB-231 breast
Assay: NCI tumour cell line growth inhibition, 48 h
EXPERIMENTAL_ENDPOINT: GI50

Item `CCCCC/C=C\C/C=C/CCCCCCCCNC(=O)Nc1ccc([N+](=O)[O-])cc1` has what recorded GI50?
13.9 µM

Item `Cc1cccc2c1NC(=O)C2(c1ccc(O)cc1)c1ccc(O)cc1` has what recorded GI50?
13.3 µM

Item `N=C(N)c1ccc(-c2ccc(-c3ccc(Cl)c(Cl)c3)o2)nc1` has what recorded GI50?
1.64 µM

Item `c1ccc(C2=NN[C@H](c3cn(-c4ccccc4)nc3-c3ccccc3)C2)cc1` has what recorded GI50?
3.86 µM

Item `COc1cc([N+](=O)[O-])c(OC)cc1-c1nc2n(c1/C(N)=N/C(=N)N)CCS2` has what recorded GI50?
27 µM

Item `Cc1nn(-c2ccccc2)c(C)c1/C=N/N1CCN(Cc2ccccc2)CC1` has what recorded GI50?
22.6 µM

Item `C(=C\c1nc2ccccc2s1)/c1ccc(N2CCOCC2)s1` has what recorded GI50?
> 100 µM

Item `O=C1C(Cl)=C(Nc2cccc(O)c2)C(=O)N1c1ccc(Cl)cc1Cl` has what recorded GI50?
23.3 µM

Item `[O]=[W](=[O])([OH])[OH]` has what recorded GI50?
> 100 µM

Item `CN1CCN(CCCOc2ccc3nc(Nc4ccc(C(F)(F)F)c(Cl)c4)ccc3c2)CC1` has what recorded GI50?
1.13 µM

Item Nc1ncnc2c1c(C(=O)NO)cn2C1OC(CO)C(O)C1O (stereo unspecified) has what recorded GI50?
0.464 µM

###

Give measured TGI for each item. Keep answers brief.
Test system: UACC-62 melanoma
Experiment: NCI tumour cell line growth inhibition, 48 h
Where a SMILES comes first, the peptide text is derived from it. The star is where a group is joined. Boc = CC(C)(C)OC(=O)*; OBn = c1ccc(CO*)cc1

Item `O=C(Nc1ccc(O)c(NS(=O)(=O)c2ccc(F)cc2)c1)c1ccc(-c2ccccc2)cc1` has what recorded TGI?
28.1 µM

Item O=C(OC(CNc1c(C(=O)c2ccccc2)c(=O)n(Cc2ccccc2)c(=O)n1Cc1ccccc1)CN1CCCCC1)c1ccccc1 (centres undefined) has what recorded TGI?
42.4 µM

Item CC(C)N(C(=O)C12C3C4C5C3C1(C#N)C5C42)C(C)C (centres undefined) has what recorded TGI?
> 100 µM

Item `Cc1nc2sc(C(=O)Nc3cccc(Cl)c3C)c(N)c2cc1C(=O)c1ccccc1` has what recorded TGI?
> 50 µM

Item COC(=O)c1c2c(cc3c1CC1(C3)Cc3ccc4c(c3C1=O)CCC4)CCC2 (centres undefined) has what recorded TGI?
> 25.3 µM

Item COc1cccc(N2C(=O)[C@H]3[C@H]4CC(C(C)(C)C)CC[C@H]4c4c([nH]c5ccccc45)[C@H]3C2=O)c1 (some centres undefined) has what recorded TGI?
28.3 µM

Item `CCN(CC)CCNc1ccc2ncn3c4c(OC)ccc(=O)c4c(O)c1c23` has what recorded TGI?
> 100 µM

Item `C[N+]1(CCCC[N+]2(C)CCCCCCC2)CCCCCCC1` has what recorded TGI?
> 100 µM

Item N#Cc1c(-c2ccccc2)c(C#N)c(=S)n(C2OCC(O)C(O)C2O)c1N (centres undefined) has what recorded TGI?
> 100 µM

Item `CCCC(=O)[O-].CCCC(=O)[O-].N.N.N.N.[Co+3].[O-][Cl+3]([O-])([O-])[O-]` has what recorded TGI?
> 100 µM

Item `O=C(Nc1cccc(-n2cc(-c3ccncc3)c(-c3ccc(O)c(Cl)c3)n2)c1)c1ccc(N2CCOCC2)c(C(F)(F)F)c1` has what recorded TGI?
> 50 µM

Item `O=C1NCC2(CCNCC2)N1` has what recorded TGI?
> 100 µM

Item CC(=O)OC(C#N)CC(C)(C)/[N+]([O-])=[N+](\[O-])C(C)(C)CC(C#N)OC(C)=O (centres undefined) has what recorded TGI?
32.2 µM

Item COC(=O)C1=C(C)N(NC(=O)c2cccc(Cl)c2)C(C)(O)C12CCOC2=O (centres undefined) has what recorded TGI?
> 100 µM

Item `O=C1c2ccccc2-n2c1nc1cc(Cl)ccc1c2=O` has what recorded TGI?
32.1 µM

Item `COC(=O)c1cn(CCCCO)nn1` has what recorded TGI?
> 100 µM

Item `Cc1cc(O)c(O)c(Oc2cc(C)cc(O)c2O)c1` has what recorded TGI?
56.8 µM

Item `CCc1cccc(CC)c1NC(=O)c1ccn2c1CCc1cnc(Nc3ccc(N4CCN(C)CC4)cc3OC)nc1-2` has what recorded TGI?
4.52 µM

Item Cc1ccc(C(CC(=O)c2ccccc2)C(C(=O)c2ccccc2)C(c2ccc(C)cc2)C2C(=O)NC(=S)NC2=O)cc1 (centres undefined) has what recorded TGI?
> 50 µM

Item `Cc1ccc(Nc2cc(=O)[nH]c(=O)[nH]2)cc1CS` has what recorded TGI?
> 100 µM

Item `COc1ccc(OC)c(-c2cc(C(=O)O)c3cc4ccccc4cc3n2)c1` has what recorded TGI?
> 100 µM

Item N#CC(C(=O)C(=O)Nc1ccc(Cl)c(Cl)c1)c1ccc(Cl)cc1 (centres undefined) has what recorded TGI?
> 100 µM

Item `COc1ccc(/C(Cl)=C(\CNc2ccccn2)c2ccccc2)cc1OC` has what recorded TGI?
> 100 µM

Item Cc1ccc(C2SC(N)=Nc3c2c(C)nn3C(=O)c2ccc(Cl)cc2)cc1 (centres undefined) has what recorded TGI?
> 10 µM

Item Nc1ccn(CC(CO)CC(c2ccccc2)P(=O)(O)O)c(=O)n1 (centres undefined) has what recorded TGI?
> 100 µM

Item NCC(=O)NC(CO)C(=O)O (centres undefined) has what recorded TGI?
> 100 µM

Item `Nc1ccc(-c2nc3ccc(Cc4ccc5nc(-c6ccc(N)cc6)oc5c4)cc3o2)cc1` has what recorded TGI?
> 100 µM

Item CC1=C2[C@@H](c3ccccc3)C3C=CC2(c2ccccc23)N(C(=O)Nc2cccc3ccccc23)C1=O (some centres undefined) has what recorded TGI?
> 100 µM

Item CC(C)C(NC(=O)CNC(=O)C1CCCN1C(=O)C(NC(=O)OC(C)(C)C)C(C)C)C(=O)NCC(=O)OCc1ccccc1 (centres undefined) (Boc-VPGVG-OBn; configuration not given here) has what recorded TGI?
> 100 µM

Item O=C(O)C1CCCCC1C(=O)Nc1nc2ccccc2[nH]1 (centres undefined) has what recorded TGI?
> 100 µM

Item `CCCCCCCCCCCCCCCCNc1ccc2c(c1)OCCOCCOCCOCCO2` has what recorded TGI?
11.1 µM

Item `COCN1C(=O)[C@@H]2CCCN2C(=O)c2cc(Cl)ccc21` has what recorded TGI?
> 100 µM

Item `Cc1[nH]c2ccccc2c1C1=CC(=O)C=CC1=O` has what recorded TGI?
23.4 µM

Item `O=C1CCCC(=O)C1C(=O)c1ccc(C(F)(F)F)cc1[N+](=O)[O-]` has what recorded TGI?
> 100 µM

Item Cc1ccc(C(O)/C(=N/N)c2nc3ccc([N+](=O)[O-])cc3[nH]c2=O)cc1 (centres undefined) has what recorded TGI?
> 100 µM

Item `C=CCCCCn1c2ccccc2c2c(C)c3c[n+](C)ccc3c(C)c21` has what recorded TGI?
1.28 µM

Item COC(=O)C1CCC[C@H]2C(CO)=C(C)C(=O)[C@@H]12 (some centres undefined) has what recorded TGI?
> 100 µM

Item `Cc1ccc(C)c(N2C(=O)C(=O)c3c(C)ccc(C)c32)c1` has what recorded TGI?
34.8 µM

Item `CCOC(=O)NC(C(C(=O)OCC)C(=O)OCC)(C(F)(F)F)C(F)(F)F` has what recorded TGI?
> 100 µM
